A collection of binders and their measured pKd
# Experimental System: T1, recombinant N-terminal extracellular domain of the human PTH1R receptor (human, UniProt Q03431 27-188, limits assumed)
# T1 construct: domain: N-terminal extracellular domain; Bought reagent; also called N-ECD PTH1R; PTH1R N-terminal ECD
# T1 sequence (looked up): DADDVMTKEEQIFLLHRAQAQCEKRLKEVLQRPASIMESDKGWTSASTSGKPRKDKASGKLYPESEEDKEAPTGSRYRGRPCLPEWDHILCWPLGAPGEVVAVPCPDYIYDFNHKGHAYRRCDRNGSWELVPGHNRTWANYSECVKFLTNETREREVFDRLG
# Assay Method Text: SPR, IgG captured, ECD injected
# Description: An anti-human IgG-Fc CMS sensor chip (GE Healthcare) was prepared using standard amine coupling as described by the manufacturer's protocol for the capture Ab on a BIACORE 4000 system (GE Healthcare). […] The data were analyzed using BIACORE 4000 Evaluation Software and was double referenced by subtracting both the blank flow cell data and the averaged bracketing blank injections. […]
// pKd: -log10(molar conc.)

INSERT INTO measurements (binder, reported_value) VALUES
  ('XPA.85.331 (antibody, V domains shown, Light-chain-shuffled variant of XPA.85.012) VH: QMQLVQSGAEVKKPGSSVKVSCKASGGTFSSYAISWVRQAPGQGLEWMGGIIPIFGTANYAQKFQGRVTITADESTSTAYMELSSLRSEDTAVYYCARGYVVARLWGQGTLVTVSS VL: DVVMTQSPLSLPVTPGEPASISCRSSQSLLHIDGFNYLQWYLQKPGQSPQLLVHLGSFRASGVPDRFSGSGSGTDFTLEISRVEAEDVGLYYCMQGLQTPPTFGPGTKVEIK', 9.66),
  ('XPA.85.346 (antibody, V domains shown, Light-chain-shuffled variant of XPA.85.012) VH: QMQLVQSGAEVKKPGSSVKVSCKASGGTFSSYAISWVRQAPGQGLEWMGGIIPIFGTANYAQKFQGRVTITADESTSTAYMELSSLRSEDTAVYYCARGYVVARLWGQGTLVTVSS VL: DIVMTQTPLSLSVTPGQPASITCKSSQSLLHIDGKTYLYWFLQKPGQPPQLLIYEVSNRFSGVPDRFSGSGSGTDFTLKISRVEAEDVGLYYCMQSLHLPITFGQGTRLEIK', 9.51),
  ('XPA.85.326 (antibody, V domains shown, Light-chain-shuffled variant of XPA.85.012) VH: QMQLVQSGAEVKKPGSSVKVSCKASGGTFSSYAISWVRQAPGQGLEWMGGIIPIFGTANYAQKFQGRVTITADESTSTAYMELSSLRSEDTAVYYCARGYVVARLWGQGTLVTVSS VL: DIVMTQTPLSLSVTPGQPASISCKSSQSLLHIDGLTYLYWYLQKPGQPPQLLIYEVSHRFSGVSDKFSGSGSGTDFTLTISRVEAEDVGVYYCMQSLHLPITFGQGTRLEIK', 9.72),
  ('XPA.85.343 (antibody, V domains shown, Light-chain-shuffled variant of XPA.85.012) VH: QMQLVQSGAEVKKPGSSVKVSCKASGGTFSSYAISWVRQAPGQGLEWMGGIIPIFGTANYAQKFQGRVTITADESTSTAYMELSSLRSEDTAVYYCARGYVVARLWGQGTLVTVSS VL: DVVMTQTPLSLSVTPGQPASISCKSSQSLLHIDGRTYLYWYLQKAGQPPQLLIYEVSNRFSGVPDRFSGSGSGTDFTLKISRVEAEDVGVYYCMQSIHFPLTFGGGTKLEIK', 9.38);

Enquiry: Supply recorded pKd for XPA.85.332 (antibody, V domains shown, Light-chain-shuffled variant of XPA.85.012) VH: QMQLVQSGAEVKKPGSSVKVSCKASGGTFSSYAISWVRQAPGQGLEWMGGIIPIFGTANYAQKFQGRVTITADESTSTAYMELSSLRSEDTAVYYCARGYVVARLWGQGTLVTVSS VL: ETTLTQSPAFMSASVGDRVTITCQASQDINNFLNWYQQKPGKAPKFLIYDASNLEKGVPSKFSGRGSGTEFTLTISSLQPEDIATYYCQQYRDFPLTFGQGTRLEIK here.
Return: 9.15
